test: Particle size and polydispersity of LNP containing pro-drug (dynamic light scattering); type: physicochemical; conditions: LNP; pro-drug concentration 99 %
Answer each item with its documented Size (nm).
Record the result as number plus unit.

| Compound | Size (nm) |
| --- | --- |
| CCCCCCCCC(OC(=O)CCCCC)C(CCCCCCCC(=O)OCC(=O)[C@@]1(O)[C@H](C)C[C@H]2[C@@H]3CCC4=CC(=O)C=C[C@]4(C)[C@@]3(F)[C@@H](O)C[C@@]21C)OC(=O)CCCCC (some centres unmarked) [INT-D085] | 135 nm |

Items follow; give Size (nm) for each.
1. CCCCC/C=C\C/C=C\CCCCCCCC(=O)OC(CCCCCCCC)C(CCCCCCCC(=O)OCC(=O)[C@@]1(O)[C@H](C)C[C@H]2[C@@H]3CCC4=CC(=O)C=C[C@]4(C)[C@@]3(F)[C@@H](O)C[C@@]21C)OC(=O)CCCCCCC/C=C\C/C=C\CCCCC (some centres unmarked) [INT-D086]
2. CCCCCC[C@H](C/C=C\CCCCCCCCOC(=O)c1ccccc1OC(C)=O)OC(=O)CCCCC [INT-D060]
3. CC/C=C\C/C=C\C/C=C\CCCCCCCC(=O)O[C@@H](C/C=C\CCCCCCCCOC(=O)CCC(=O)OCC(=O)[C@@]1(O)[C@H](C)C[C@H]2[C@@H]3CCC4=CC(=O)C=C[C@]4(C)[C@@]3(F)[C@@H](O)C[C@@]21C)CCCCCC [INT-D049]
4. CCCCC/C=C\C/C=C\CCCCCCCC(=O)O[C@@H](C/C=C\CCCCCCCCOC(=O)c1ccccc1OC(C)=O)CCCCCC [INT-D061]
5. CCCCCC[C@H](C/C=C\CCCCCCCCOC(=O)CCC(=O)OCC(=O)[C@@]1(O)[C@H](C)C[C@H]2[C@@H]3CCC4=CC(=O)C=C[C@]4(C)[C@@]3(F)[C@@H](O)C[C@@]21C)OC(=O)CCCCC [INT-D034]
6. CCCCC/C=C\C/C=C\CCCCCCCC(=O)O[C@@H](C/C=C\CCCCCCCCOC(=O)CCC(=O)OCC(=O)[C@@]1(O)[C@H](C)C[C@H]2[C@@H]3CCC4=CC(=O)C=C[C@]4(C)[C@@]3(F)[C@@H](O)C[C@@]21C)CCCCCC [INT-D045]
7. CCCCC/C=C\C/C=C\CCCCCCCC(=O)O[C@@H](C/C=C\CCCCCCCCOC(=O)CC/C(C)=C/Cc1c(O)c2c(c(C)c1OC)COC2=O)CCCCCC [INT-D063]
8. CCCCCCCCCCCCCCCCCC(=O)O[C@@H](C/C=C\CCCCCCCCOC(=O)CCC(=O)OCC(=O)[C@@]1(O)[C@H](C)C[C@H]2[C@@H]3CCC4=CC(=O)C=C[C@]4(C)[C@@]3(F)[C@@H](O)C[C@@]21C)CCCCCC [INT-D050]

Result:
["160 nm", "98 nm", "103 nm", "123 nm", "86 nm", "75 nm", "119 nm", "105 nm"]

Items follow; give Size (nm) for each.
1. CCCCCC[C@H](C/C=C\CCCCCCCCOC(=O)CC/C(C)=C/Cc1c(O)c2c(c(C)c1OC)COC2=O)OC(=O)CCCCC [INT-D062]
2. CCCCC/C=C\C/C=C\C/C=C\C/C=C\CCCC(=O)O[C@@H](C/C=C\CCCCCCCCOC(=O)CCC(=O)OCC(=O)[C@@]1(O)[C@H](C)C[C@H]2[C@@H]3CCC4=CC(=O)C=C[C@]4(C)[C@@]3(F)[C@@H](O)C[C@@]21C)CCCCCC [INT-D051]

Result:
93 nm
93 nm

Source: patent US20220226480A1
